biological target: guinea-pig B2 receptor (Cavia porcellus, UniProt O70526); construct: Ileum segments are isolated from male guinea-pigs of the Dunkin-Hartley strain; tissue Iffa Credo, l'Arbresle, France (animals); host or cells: ileum membranes of male Dunkin-Hartley guinea-pigs; experiment: [3H]-bradykinin binding to guinea-pig ileum membranes; conditions: test compound 10^-6 M; [3H]-bradykinin 120 pM; 50 μg membrane protein; 90 min at 20° C.; read-out: Activity % (percentage inhibition of the binding of [3H]-bradykinin)
Sequence (O70526 whole entry): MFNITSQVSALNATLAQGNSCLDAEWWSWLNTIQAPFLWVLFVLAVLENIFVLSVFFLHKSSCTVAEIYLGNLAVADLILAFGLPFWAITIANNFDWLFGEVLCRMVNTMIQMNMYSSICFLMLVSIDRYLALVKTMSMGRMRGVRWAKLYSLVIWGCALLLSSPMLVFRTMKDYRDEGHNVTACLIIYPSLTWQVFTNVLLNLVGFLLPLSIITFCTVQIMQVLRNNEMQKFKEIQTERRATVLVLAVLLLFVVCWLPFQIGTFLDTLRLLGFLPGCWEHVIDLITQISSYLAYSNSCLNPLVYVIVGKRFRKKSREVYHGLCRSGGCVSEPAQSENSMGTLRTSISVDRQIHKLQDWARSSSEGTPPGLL
Structures can show the parent of a compound that is named as a salt.
MEASURE: inhibition at 1 µM (%)

[
  {
    "MOLECULE": "Cc1ccc2cccc(OCc3c(Cl)ccc(S(=O)(=O)N(C)Cc4cccc(C(=O)NCCN(C)C)c4)c3Cl)c2n1",
    "TARGET OR SYSTEM": "guinea-pig B2 receptor (Cavia porcellus, UniProt O70526)",
    "inhibition at 1 µM / %": 100
  },
  {
    "MOLECULE": "Cc1ccc2cccc(OCc3c(Cl)ccc(S(=O)(=O)N(CCCCN)C(C)(C)C)c3Cl)c2n1",
    "TARGET OR SYSTEM": "guinea-pig B2 receptor (Cavia porcellus, UniProt O70526)",
    "inhibition at 1 µM / %": 92.8
  },
  {
    "MOLECULE": "Cc1ccc2cccc(OCc3c(Cl)ccc(S(=O)(=O)N(C)Cc4cccc(C(=O)N(C)C)c4)c3Cl)c2n1",
    "TARGET OR SYSTEM": "guinea-pig B2 receptor (Cavia porcellus, UniProt O70526)",
    "inhibition at 1 µM / %": 96.9
  },
  {
    "MOLECULE": "Cc1ccc2cccc(OCc3c(Cl)ccc(S(=O)(=O)N(C)Cc4cccc(C(N)=O)c4)c3Cl)c2n1",
    "TARGET OR SYSTEM": "guinea-pig B2 receptor (Cavia porcellus, UniProt O70526)",
    "inhibition at 1 µM / %": 99.8
  },
  {
    "MOLECULE": "Cc1ccc2cccc(OCc3c(Cl)ccc(S(=O)(=O)N(C)CCCCCCCCO)c3Cl)c2n1",
    "TARGET OR SYSTEM": "guinea-pig B2 receptor (Cavia porcellus, UniProt O70526)",
    "inhibition at 1 µM / %": 95.7
  },
  {
    "MOLECULE": "Cc1ccc2cccc(OCc3c(Cl)ccc(S(=O)(=O)N(C)CCCCCCCCCCCCO)c3Cl)c2n1",
    "TARGET OR SYSTEM": "guinea-pig B2 receptor (Cavia porcellus, UniProt O70526)",
    "inhibition at 1 µM / %": 94.3
  },
  {
    "MOLECULE": "Cc1ccc2cccc(OCc3c(Cl)ccc(S(=O)(=O)N(C)CCc4ccccc4)c3Cl)c2n1",
    "TARGET OR SYSTEM": "guinea-pig B2 receptor (Cavia porcellus, UniProt O70526)",
    "inhibition at 1 µM / %": 97.9
  },
  {
    "MOLECULE": "CNC(=O)CCCCCN(C)S(=O)(=O)c1ccc(Cl)c(COc2cccc3ccc(C)nc23)c1Cl",
    "TARGET OR SYSTEM": "guinea-pig B2 receptor (Cavia porcellus, UniProt O70526)",
    "inhibition at 1 µM / %": 99
  },
  {
    "MOLECULE": "Cc1ccc2cccc(OCc3c(Cl)ccc(S(=O)(=O)N(C)Cc4c[nH]c5ccccc45)c3Cl)c2n1",
    "TARGET OR SYSTEM": "guinea-pig B2 receptor (Cavia porcellus, UniProt O70526)",
    "inhibition at 1 µM / %": 97.6
  },
  {
    "MOLECULE": "Cc1ccc2cccc(OCc3c(Cl)ccc(S(=O)(=O)N(CCCCCCCO)Cc4ccccc4)c3Cl)c2n1",
    "TARGET OR SYSTEM": "guinea-pig B2 receptor (Cavia porcellus, UniProt O70526)",
    "inhibition at 1 µM / %": 95.1
  },
  {
    "MOLECULE": "Cc1ccc2cccc(OCc3c(Cl)ccc(S(=O)(=O)N(C)Cc4cccc(C(=O)NCCCO)c4)c3Cl)c2n1",
    "TARGET OR SYSTEM": "guinea-pig B2 receptor (Cavia porcellus, UniProt O70526)",
    "inhibition at 1 µM / %": 99.3
  },
  {
    "MOLECULE": "CC(=O)NCCCCN(C(C)(C)C)S(=O)(=O)c1ccc(Cl)c(COc2cccc3ccc(C)nc23)c1Cl",
    "TARGET OR SYSTEM": "guinea-pig B2 receptor (Cavia porcellus, UniProt O70526)",
    "inhibition at 1 µM / %": 90.5
  },
  {
    "MOLECULE": "Cc1ccc2cccc(OCc3c(Cl)ccc(S(=O)(=O)N(C)CCCCCCCN)c3Cl)c2n1 [Example 16, bis(trifluoroacetate)]",
    "TARGET OR SYSTEM": "guinea-pig B2 receptor (Cavia porcellus, UniProt O70526)",
    "inhibition at 1 µM / %": 100
  },
  {
    "MOLECULE": "CNC(=O)c1cccc(CN(C)S(=O)(=O)c2ccc(Cl)c(COc3cccc4ccc(C)nc34)c2Cl)c1",
    "TARGET OR SYSTEM": "guinea-pig B2 receptor (Cavia porcellus, UniProt O70526)",
    "inhibition at 1 µM / %": 100
  },
  {
    "MOLECULE": "Cc1ccc2cccc(OCc3c(Cl)ccc(S(=O)(=O)N(C)Cc4ccc(O)cc4)c3Cl)c2n1",
    "TARGET OR SYSTEM": "guinea-pig B2 receptor (Cavia porcellus, UniProt O70526)",
    "inhibition at 1 µM / %": 99.5
  },
  {
    "MOLECULE": "Cc1ccc2cccc(OCc3c(Cl)ccc(S(=O)(=O)N(C)Cc4ccc(N)cc4)c3Cl)c2n1 [Example 8, dihydrochloride]",
    "TARGET OR SYSTEM": "guinea-pig B2 receptor (Cavia porcellus, UniProt O70526)",
    "inhibition at 1 µM / %": 99.5
  },
  {
    "MOLECULE": "CNC(=O)CCCCCCCN(Cc1ccccc1)S(=O)(=O)c1ccc(Cl)c(COc2cccc3ccc(C)nc23)c1Cl",
    "TARGET OR SYSTEM": "guinea-pig B2 receptor (Cavia porcellus, UniProt O70526)",
    "inhibition at 1 µM / %": 98
  }
]
